These entries and their values trace back to ChEMBL document CHEMBL3988442.

Listed next: entries and their corresponding Percent Effect.
tested on: Wolbachia pipientis; assay: Anti-Wolbachia Cell-Based Screen; assay type: functional; design: scale not given: in the data most compounds retested in dose-response had high values; conditions: 5 µM
Screen size: about 48,000 compounds; about 13,000 (27%) showed an effect of 50% or more. The list shows a part of the results.
Just the number please, in %, no unit attached.

# item_smiles, system_tested, u, Percent Effect
data = [
    ("CNC(=O)[C@@H]1C[C@H]2CN(Cc3ccc(C)o3)C[C@H]2N1C(C)=O", "Wolbachia pipientis", "%", 14.16),
    ("O=C(O)C(F)(F)F.O=C(c1cc[nH]n1)N1CC[C@@H]2CN(Cc3ccncc3)S(=O)(=O)[C@@H]2CC1", "Wolbachia pipientis", "%", -5.267),
    ("CN1[C@@H](C(=O)NCC2CC2)C[C@H]2CN(Cc3ccsc3)C[C@H]21.O=C(O)C(F)(F)F.O=C(O)C(F)(F)F", "Wolbachia pipientis", "%", 106.3),
    ("CCN1C[C@H]2CCN(C(=O)c3cc[nH]n3)CC[C@H]2S1(=O)=O", "Wolbachia pipientis", "%", 7.026),
    ("CN1[C@@H](C(=O)NCC2CC2)C[C@@H]2CN(Cc3ccsc3)C[C@@H]21.O=C(O)C(F)(F)F.O=C(O)C(F)(F)F", "Wolbachia pipientis", "%", 95.65),
    ("CNC(=O)[C@@H]1C[C@H]2CN(Cc3ccc(C)s3)C[C@H]2N1C(C)=O.O=C(O)C(F)(F)F.O=C(O)C(F)(F)F", "Wolbachia pipientis", "%", 111.1),
]

We next turn to a different molecule, shown below.
Q: Notebook: pull reported Percent Effect for Wolbachia pipientis, entry CC(C)N1[C@H](Cn2cncn2)C[C@@H]2CN(Cc3ccsc3)CC[C@@H]21.O=C(O)C(F)(F)F
A: 4.812

====

# Percent Effect listing for each entry below
tested on: Wolbachia pipientis; test: Anti-Wolbachia Cell-Based Screen; format: functional; parameters: scale not given: in the data most compounds retested in dose-response had high values; conditions: 5 µM
Out of some 48,000 compounds screened, about 13,000 (27%) showed an effect of 50% or more. This is one part of the list.
Note: unit % is implicit; provide only the numeric part.

# compound, system_tested, Percent Effect [%]
rows = [
    ("Cc1ccc(N2CCCC(NCc3ccc(-n4ccnc4)cc3)C2)nn1 (centres undefined)", "Wolbachia pipientis", 9.457),
    ("Cc1noc(C(C)C)c1C(=O)NCc1ccc2c(c1)OCCO2", "Wolbachia pipientis", 83.78),
    ("CCN(CC)C(=O)CN(C)C1CCc2ccccc21 (centres undefined)", "Wolbachia pipientis", -5.842),
    ("CC(C)(C(=O)NCCCC(N)=O)c1cccc(Br)c1", "Wolbachia pipientis", 6.793),
    ("Cc1noc([C@@H](C)NCc2ccc(F)cc2)c1C(=O)O.Cl", "Wolbachia pipientis", -4.042),
    ("Cc1noc(C(C)C)c1C(=O)NCc1ccc(N(C)C)c(F)c1", "Wolbachia pipientis", 78.48),
    ("CC(=O)NCC1CCN(C(=O)NCc2ccc3c(c2)OCCO3)CC1", "Wolbachia pipientis", -6.191),
    ("CS(=O)(=O)CCC(=O)N1C[C@@H]2CC[C@H](C1)N(Cc1ccccc1)C2=O", "Wolbachia pipientis", 8.046),
]

Q: For Nc1cc(N2CCCC(Cc3ccc(F)cc3F)(C(=O)O)C2)ncn1 (centres undefined) , what is its reported Percent Effect?
A: -0.2204

Q: Moving on to CC(C)c1noc(CNc2ccccc2CC(=O)N(C)C)n1
A: 6.812
